# assay_method_text: APR_HepG2_MitoMass_72hr: Apredica 72-hour HepG2 Assay for Mitochondrial Mass (AID 2282924);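 note: MitoTracker Red CMXRos stain intensity per cell imaged as mitochondrial mass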
# test_conditions: high-content imaging, actives raise or lower the signal
Activity calls are given as the source filed them. Rule for the calls: active = hit-call score of the fitted dose curve at least 0.9, where 1 is the maximum; inactive = score below 0.9.
Write down one outcome, taken from y for active, n for inactive

{"columns": ["compound", "qualitative_label"],
 "data": [
  ["COP(=S)(OC)Oc1nc(Cl)c(Cl)cc1Cl", "n"],
  ["CCCCNC(=O)n1c(NC(=O)OC)nc2ccccc21", "y"],
  ["CN(C)C(=S)SSC(=S)N(C)C", "n"],
  ["Cc1ccc(-c2c(Cl)nc(C#N)n2S(=O)(=O)N(C)C)cc1", "n"],
  ["CON(C)C(=O)Nc1ccc(Cl)c(Cl)c1", "y"],
  ["CCCC1COC(Cn2cncn2)(c2ccc(Cl)cc2Cl)O1 (stereo not given)", "n"]
]}

Entry "CCCCOC(=O)c1ccccc1C(=O)OCCCC" : call = ?
n

Entry CCOC(=O)CC(SP(=S)(OC)OC)C(=O)OCC (stereo not given) : call = ?
n

Entry CCCCC(CC)COC(=O)c1ccccc1C(=O)OCC(CC)CCCC (stereo not given) : call = ?
n

Entry N#CC(CCc1ccc(Cl)cc1)(Cn1cncn1)c1ccccc1 (stereo not given) : call = ?
n

Entry "O=C(Nc1ccccc1)Nc1ccnc(Cl)c1" : call = ?
n

Entry "N#Cc1cc(Br)c(O)c(Br)c1" : call = ?
n
